Reference for the values: patent US20090111821A1

Molecular target: human mGluR5d (Homo sapiens, UniProt P41594)
Construct: The cells are kept under hygromycin B and Zeocin selection; The separate IP3 assay names GHEK cells stably expressing human mGluR5d
Sequence (P41594 21-942 isoform P41594-3 limits assumed): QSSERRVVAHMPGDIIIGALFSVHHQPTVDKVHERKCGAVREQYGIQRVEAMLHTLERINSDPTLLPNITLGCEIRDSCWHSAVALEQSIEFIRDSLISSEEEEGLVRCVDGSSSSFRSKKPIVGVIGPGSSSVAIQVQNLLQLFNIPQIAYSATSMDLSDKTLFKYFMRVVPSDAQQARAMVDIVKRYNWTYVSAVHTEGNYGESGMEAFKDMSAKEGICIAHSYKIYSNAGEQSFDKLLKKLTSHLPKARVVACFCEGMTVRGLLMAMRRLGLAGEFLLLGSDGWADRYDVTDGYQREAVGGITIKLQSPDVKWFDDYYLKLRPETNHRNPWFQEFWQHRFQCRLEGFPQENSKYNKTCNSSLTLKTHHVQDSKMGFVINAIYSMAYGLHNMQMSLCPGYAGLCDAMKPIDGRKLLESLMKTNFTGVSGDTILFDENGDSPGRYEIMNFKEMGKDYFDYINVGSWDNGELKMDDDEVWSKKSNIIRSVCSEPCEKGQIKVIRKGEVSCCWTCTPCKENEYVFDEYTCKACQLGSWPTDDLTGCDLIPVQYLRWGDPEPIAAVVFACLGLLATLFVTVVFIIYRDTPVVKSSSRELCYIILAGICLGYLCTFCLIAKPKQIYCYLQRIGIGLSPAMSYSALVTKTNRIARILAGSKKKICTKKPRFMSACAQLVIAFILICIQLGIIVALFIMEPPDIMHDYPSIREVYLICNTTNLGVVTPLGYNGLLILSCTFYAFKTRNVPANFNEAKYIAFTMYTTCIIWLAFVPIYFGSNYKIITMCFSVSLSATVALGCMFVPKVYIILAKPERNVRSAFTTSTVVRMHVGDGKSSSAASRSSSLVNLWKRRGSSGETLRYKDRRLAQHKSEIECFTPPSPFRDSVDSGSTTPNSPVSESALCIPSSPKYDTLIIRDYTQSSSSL
Assay: FLIPR assay, mobilization of intracellular calcium in cells expressing human mGluR5d
Conditions: antagonism of agonist response, read-out: FLIPR hmGluR5d
Text: Functional Assessment of mGluR5 Antagonism in Cell Lines Expressing mGluR5D The properties of the compounds of the invention can be analyzed using standard assays for pharmacological activity. Examples of glutamate receptor assays are well known in the art as described in for example Aramori et al., Neuron 8:757 (1992), Tanabe et al. Neuron 8:169 (1992), Miller et al., J. Neuroscience 15: 6103 (1995), Balazs, et al., J. Neurochemistry 69:151 (1997). […]
pIC50: −log10 of the molar value.
quantity: pIC50

Here is how some compounds turned out for pIC50.
1) CCN(Cc1cc(-c2cccc(C)c2)on1)c1nnc(-c2cn[nH]c(=O)c2)n1C	7.35
2) Cc1cccc(-c2cc([C@H](C)N(C)c3nnc(-c4cc[nH]c(=O)c4)n3C)no2)c1	7.15
3) CC(c1cc(-c2cccc(Cl)c2)on1)N(C)c1nnc(-c2ccn(C)c(=O)c2)n1C (single isomer, unassigned; (-)) [(−) 5.1]	7.52
4) CCN(Cc1cc(-c2cccc(C)c2)on1)c1nnc(-c2cc[nH]c(=O)c2)n1C	7.28
5) CCn1c(-c2cc(=O)[nH]cn2)nnc1N(C)Cc1cc(-c2cccc(Cl)c2)on1	7.89

P = Cc1cccc(-c2cc([C@H](C)N(C)c3nnc(-c4cnn(C)c(=O)c4)n3C)no2)c1
Q = Cc1cccc(-c2cc([C@H](C)N(C)c3nnc(-c4ccn(C)c(=O)c4)n3C)no2)c1
Identify the entry with the larger pIC50. Options: P and Q // respond with label for picked entry
P

P = CCN(Cc1cc(-c2cccc(C)c2)on1)c1nnc(-c2ccn(C)c(=O)c2)n1C
Q = CCN(Cc1cc(-c2cccc(Cl)c2)on1)c1nnc(-c2cn[nH]c(=O)c2)n1C
R = CCN(Cc1noc(-c2cccc(C)c2)n1)c1nnc(-c2cn[nH]c(=O)c2)n1C
Endpoint returns the given compounds ordered by ascending pIC50. Give the labels in the order specified.
P, R, Q
(P: 6.95, R: 7.28, Q: 7.68)

====

Experiment: Determination of brain to plasma ratio in rat
Format: in vivo
Conditions: brain and plasma, female Sprague Dawley rats, read-out: Brain/Plasma Ratio of compound in Rat
quantity: Kp

1. CCN(Cc1cc(-c2cccc(Cl)c2)on1)c1nnc(-c2cn[nH]c(=O)c2)n1C	0.015

GET /values?readout=Kp&item= `CCN(Cc1noc(-c2cccc(Cl)c2)n1)c1nnc(-c2cn[nH]c(=O)c2)n1C`
< 0.01

Tell me the measured Kp of `CCN(Cc1cc(-c2cccc(C)c2)on1)c1nnc(-c2ccn(C)c(=O)c2)n1C` , please.
0.22

Quick check: Kp of `Cc1cccc(-c2cc([C@H](C)N(C)c3nnc(-c4cnn(C)c(=O)c4)n3C)no2)c1` ?
0.07

// returns reported Kp for input `CCn1c(-c2cc(=O)[nH]cn2)nnc1N(C)Cc1cc(-c2cccc(C)c2)on1`
< 0.015

====

Let's look at some molecules and their measured Kp.
Assay: Determination of brain to plasma ratio in rat
Assay type: in vivo
Details: brain and plasma, female Sprague Dawley rats, read-out: Brain/Plasma Ratio of compound in Rat

Worked examples, 8 molecules total:
1) CCN(Cc1cc(-c2cccc(Cl)c2)on1)c1nnc(-c2ccn(C)c(=O)c2)n1C	< 0.01
2) CN(Cc1cc(-c2cccc(Cl)c2)on1)c1nnc(-c2cncnc2)n1C	0.16
3) Cc1cccc(-c2cc([C@H](C)N(C)c3nnc(-c4cn[nH]c(=O)c4)n3C)no2)c1	< 0.01
4) CCN(Cc1cc(-c2cccc(C)c2)on1)c1nnc(-c2cn[nH]c(=O)c2)n1C	0.01
5) CCn1c(-c2cc(=O)[nH]cn2)nnc1N(C)Cc1cc(-c2cccc(Cl)c2)on1	< 0.01
6) Cn1c(-c2cn[nH]c(=O)c2)nnc1N(Cc1cc(-c2cccc(Cl)c2)on1)C1CC1	< 0.01
7) CN(Cc1cc(-c2cccc(Cl)c2)on1)c1nnc(-c2cc(=O)[nH]cn2)n1C1CC1	< 0.01
8) Cc1cccc(-c2cc([C@H](C)N(C)c3nnc(-c4cc[nH]c(=O)c4)n3C)no2)c1	< 0.01

Field request: Kp | item: `CCN(Cc1noc(-c2cccc(C)c2)n1)c1nnc(-c2cn[nH]c(=O)c2)n1C`
< 0.01
